# protocol notes: Plasma clearance in Sprague-Dawley rat at 1 mg/kg, iv
# Assay type: ADME, organism-based
# Parameters: dose 1 mg/kg, route intravenous
observed property: clearance
Just so you know, I need the unit written after the number.

## Input Could you share which clearance value was measured for Cc1ncc(CCCN(C)C)cc1Nc1ncc2c(n1)-c1ccc(C(F)(F)F)cc1NC(=S)C2 ?
## Output 38.3 mL/min/kg

###

# protocol notes: Drug uptake in tumor of nude mouse xenografted with human HT-29 cells at 25 mg/kg, po after 24 hrs
# Assay type: ADME, organism-based, Neoplasm
# Set-up: dose 25 mg/kg, route oral
# conditions used: read-out: Drug uptake
observed property: concentration at 24 h (nM)
Response body: numeric value in nM, unit text excluded.

## Input If you can, please state the reported concentration at 24 h value of Cc1ncc(CCCN(C)C)cc1Nc1ncc2c(n1)-c1ccc(C(F)(F)F)cc1NC(=S)C2 .
## Output 920

###

# protocol notes: Drug uptake in tumor of nude mouse xenografted with human HT-29 cells at 50 mg/kg, po after 48 hrs
# Assay type: ADME, organism-based, Neoplasm
# Parameters: dose 50 mg/kg, route oral
# conditions used: read-out: Drug uptake
observed property: concentration at 48 h (nM)
Please give a number only; it is taken to be in nM.

## Input Which measured concentration at 48 h value corresponds to Cc1ncc(CCCN(C)C)cc1Nc1ncc2c(n1)-c1ccc(C(F)(F)F)cc1NC(=S)C2 ?
## Output 476

## Input Could you share which concentration at 48 h value was measured for Cc1ncc(CCCN(C)C)cc1Nc1ncc2c(n1)-c1ccc(Cl)cc1NC(=S)C2 ?
## Output 332

###

# protocol notes: Drug uptake in tumor of nude mouse xenografted with human HT-29 cells at 25 mg/kg, po after 72 hrs
# Format: ADME, organism-based, Neoplasm
# Design: dose 25 mg/kg, route oral
# conditions used: read-out: Drug uptake
observed property: concentration at 72 h (nM)
Reply numerically in nM, unit not repeated.

## Input Request the reported concentration at 72 h associated with Cc1ncc(CCCN(C)C)cc1Nc1ncc2c(n1)-c1ccc(C(F)(F)F)cc1NC(=S)C2
## Output 163

###

# protocol notes: Toxicity in po dosed nude mouse administered once daily
# Assay type: organism-based
# conditions used: in vivo
observed property: MTD
Answer with the number, then the unit.

## Input Which MTD reading was recorded for the molecule Cc1ncc(CCCN(C)C)cc1Nc1ncc2c(n1)-c1ccc(C(F)(F)F)cc1NC(=S)C2 ?
## Output 12.5 mg/kg

###

# protocol notes: Drug uptake in tumor of nude mouse xenografted with human HT-29 cells at 25 mg/kg, po after 48 hrs
# Assay type: ADME, organism-based, Neoplasm
# Parameters: dose 25 mg/kg, route oral
# conditions used: read-out: Drug uptake
observed property: concentration at 48 h (nM)
Numbers only; they are read as nM.

## Input concentration at 48 h for Cc1ncc(CCCN(C)C)cc1Nc1ncc2c(n1)-c1ccc(C(F)(F)F)cc1NC(=S)C2 ?
## Output 369

###

# protocol notes: Tmax in nude NCR mouse at 12.5 mg/kg, po
# Format: ADME, organism-based
# Design: dose 12.5 mg/kg, route oral
# conditions used: in vivo
observed property: Tmax (h)
The reply should be a number in h, with the unit left off.

## Input Name the recorded Tmax for Cc1ncc(CCCN(C)C)cc1Nc1ncc2c(n1)-c1ccc(C(F)(F)F)cc1NC(=S)C2 .
## Output 4

###

# protocol notes: Plasma clearance in nude NCR mouse at 2 mg/kg, iv
# Format: ADME, organism-based
# Design: dose 2 mg/kg, route intravenous
observed property: clearance
Provide the measurement as a number trailed by its unit.

## Input Quick check: clearance of Cc1ncc(CCCN(C)C)cc1Nc1ncc2c(n1)-c1ccc(C(F)(F)F)cc1NC(=S)C2 ?
## Output 41.7 mL/min/kg

###

# protocol notes: Drug uptake in tumor of nude mouse xenografted with human HT-29 cells at 6.25 mg/kg, po after 48 hrs
# Format: ADME, organism-based, Neoplasm
# Set-up: dose 6.25 mg/kg, route oral
# conditions used: read-out: Drug uptake
observed property: concentration at 48 h (nM)
Write down the numeric answer in nM and omit the unit.

## Input GET /values?readout=concentration at 48 h&item= Cc1ncc(CCCN(C)C)cc1Nc1ncc2c(n1)-c1ccc(C(F)(F)F)cc1NC(=S)C2
## Output 121

###

# protocol notes: Drug uptake in tumor of nude mouse xenografted with human HT-29 cells at 12.5 mg/kg, po after 24 hrs
# Type: ADME, organism-based, Neoplasm
# Parameters: dose 12.5 mg/kg, route oral
# conditions used: read-out: Drug uptake
observed property: concentration at 24 h
Record the result as number plus unit.

## Input I am curious: what concentration at 24 h value has been reported for Cc1ncc(CCCN(C)C)cc1Nc1ncc2c(n1)-c1ccc(C(F)(F)F)cc1NC(=S)C2 ?
## Output 339 nM

###

# protocol notes: Oral bioavailability in Sprague-Dawley rat at 5 mg/kg
# Assay type: ADME, organism-based
# conditions used: in vivo
observed property: bioavailability
Hi, when you answer, please include the unit after the number. Thanks!

## Input Find the recorded bioavailability belonging to Cc1ncc(CCCN(C)C)cc1Nc1ncc2c(n1)-c1ccc(C(F)(F)F)cc1NC(=S)C2 and report it.
## Output 72%

###

# protocol notes: Drug uptake in tumor of nude mouse xenografted with human HT-29 cells at 50 mg/kg, po after 24 hrs
# Assay type: ADME, organism-based, Neoplasm
# Parameters: dose 50 mg/kg, route oral
# conditions used: read-out: Drug uptake
observed property: concentration at 24 h (nM)
// note: answer is a bare numeric in nM

## Input Value lookup for concentration at 24 h; key = Cc1ncc(CCCN(C)C)cc1Nc1ncc2c(n1)-c1ccc(C(F)(F)F)cc1NC(=S)C2
## Output 1470

## Input So what does the record say about concentration at 24 h for Cc1ncc(CCCN(C)C)cc1Nc1ncc2c(n1)-c1ccc(Cl)cc1NC(=S)C2 ?
## Output 1080

###

# protocol notes: Half life in nude NCR mouse at 2 mg/kg, iv
# Type: ADME, organism-based
# Set-up: dose 2 mg/kg, route intravenous
# conditions used: in vivo
observed property: half-life (h)
Note: unit h is implicit; provide only the numeric part.

## Input If you can, please state the reported half-life value of Cc1ncc(CCCN(C)C)cc1Nc1ncc2c(n1)-c1ccc(C(F)(F)F)cc1NC(=S)C2 .
## Output 3.4

###

# protocol notes: Drug uptake in tumor of nude mouse xenografted with human HT-29 cells at 6.25 mg/kg, po after 24 hrs
# Type: ADME, organism-based, Neoplasm
# Set-up: dose 6.25 mg/kg, route oral
# conditions used: read-out: Drug uptake
observed property: concentration at 24 h (nM)
Report the value in nM with no unit label.

## Input What does the data say about its concentration at 24 h? Entry: Cc1ncc(CCCN(C)C)cc1Nc1ncc2c(n1)-c1ccc(C(F)(F)F)cc1NC(=S)C2
## Output 239

###

# protocol notes: Toxicity in po dosed nude mouse administered qd for 3 days in a week
# Format: organism-based
# conditions used: in vivo
observed property: MTD at 72 h (mg/kg)
I only need the number, in mg/kg, no unit after it.

## Input Which MTD at 72 h is listed for Cc1ncc(CCCN(C)C)cc1Nc1ncc2c(n1)-c1ccc(C(F)(F)F)cc1NC(=S)C2 ?
## Output 25

###

# protocol notes: Oral bioavailability in nude NCR mouse at 12.5 mg/kg
# Format: ADME, organism-based
# conditions used: in vivo
observed property: bioavailability (%)
Return type: number; implicit unit %.

## Input Would you kindly share the measured bioavailability for Cc1ncc(CCCN(C)C)cc1Nc1ncc2c(n1)-c1ccc(C(F)(F)F)cc1NC(=S)C2 ?
## Output 45
